Reference for the values: the supplement of paper PMC6757056

B1: library; a variant is named by its letters at N, in order (parent)
chain: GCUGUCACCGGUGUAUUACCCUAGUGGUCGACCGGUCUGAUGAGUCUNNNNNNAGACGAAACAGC

variants of: B1; assay: normalized RNA/DNA level with ligand (relative to sTRSVctl = 100) (log10 (% of sTRSVctl)); ligand: hypoxanthine (xanthine aptamer); higher = less ribozyme self-cleavage, higher mRNA level; details: ligand concentration (+) RNA-Seq: 5 mM, HEK293T, reporter: mCherry (pCS4076), ligand present: yes
Give measured normalized RNA/DNA level with ligand (log10) for each item. Keep answers brief.
# answer = number (no unit)

Recorded result, GAAUGC , normalized RNA/DNA level with ligand (log10): 1.86

Recorded result, UGUCUC , normalized RNA/DNA level with ligand (log10): 2

Recorded result, ACUUUG , normalized RNA/DNA level with ligand (log10): 1.91

Recorded result, GGGGAG , normalized RNA/DNA level with ligand (log10): 1.81

Recorded result, CAGCUA , normalized RNA/DNA level with ligand (log10): 1.9

Recorded result, GUCGCA , normalized RNA/DNA level with ligand (log10): 1.94

Recorded result, UAAAGA , normalized RNA/DNA level with ligand (log10): 1.89

Recorded result, ACCGCG , normalized RNA/DNA level with ligand (log10): 1.83

Recorded result, GAAGGC , normalized RNA/DNA level with ligand (log10): 1.89

Recorded result, UAUGUC , normalized RNA/DNA level with ligand (log10): 1.94

Recorded result, GAUCAC , normalized RNA/DNA level with ligand (log10): 1.99

Recorded result, ACCAGU , normalized RNA/DNA level with ligand (log10): 1.91

Recorded result, CGCUGA , normalized RNA/DNA level with ligand (log10): 1.95

Recorded result, AUUACC , normalized RNA/DNA level with ligand (log10): 1.93

Recorded result, CUUUUU , normalized RNA/DNA level with ligand (log10): 1.95

Recorded result, GAGGCU , normalized RNA/DNA level with ligand (log10): 2

Recorded result, UCUAAC , normalized RNA/DNA level with ligand (log10): 1.94

Recorded result, AGCCCG , normalized RNA/DNA level with ligand (log10): 1.96

Recorded result, CAGGGG , normalized RNA/DNA level with ligand (log10): 1.75

Recorded result, AGUACG , normalized RNA/DNA level with ligand (log10): 1.84

Recorded result, GCAUUU , normalized RNA/DNA level with ligand (log10): 1.92

Recorded result, AAAGGU , normalized RNA/DNA level with ligand (log10): 1.9
